Documented kon across a set of binders
# targetOrTestSystem: T1, Human ST2 (human, UniProt Q01638 19-328, limits assumed)
# T1 construct: also called human ST2 protein; Interleukin 1 receptor-like 1
# T1 sequence (looked up): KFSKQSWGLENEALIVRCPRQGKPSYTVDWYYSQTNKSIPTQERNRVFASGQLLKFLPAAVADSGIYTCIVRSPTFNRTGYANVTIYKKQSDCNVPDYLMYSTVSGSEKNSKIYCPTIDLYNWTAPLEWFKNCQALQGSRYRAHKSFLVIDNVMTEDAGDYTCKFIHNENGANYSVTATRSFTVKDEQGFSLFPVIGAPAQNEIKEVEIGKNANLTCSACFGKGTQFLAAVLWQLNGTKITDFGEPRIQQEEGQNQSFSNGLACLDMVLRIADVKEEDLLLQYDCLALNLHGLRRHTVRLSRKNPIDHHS
# protocolDetails: SPR (Carterra), antibody immobilized, ST2 analyte
Provide only the numeric value, understood in M⁻¹ s⁻¹.

binder	u	kon
Human ST2 IgG1 Antibody 5 (antibody, V domains shown, IgG1; also called ST2 Antibody 5) VH: EVQLLESGGGLVQPGGSLRLSCAASGFTFSSYWMSWVRQAPGKGLEWVSSISSDTTYKYYADSVKGRFTISRDNSKNTLYLQMNSLRAEDTAVYYCAREVDTAMKNWGQGTLVTVSS VL: DIQMTQSPSSLSASVGDRVTITCRASQGIGNDLAWYQQKPGKAPKLLIYAASSLQSGVPSRFSGSGSGTDFTLTISSLQPEDFATYYCQQSYSTPYTFGQGTKVEIKR	M⁻¹ s⁻¹	250000

Could you now consider this next binder?
Entry Human ST2 IgG1 Antibody 33 (antibody, V domains shown, IgG1; also called ST2 Antibody 33) VH: QVQLVQSGAEVKKPGSSVKVSCKASGDTFDTYAISWVRQAPGQGLEWMGGIIPIFGTANYAQKFQGRVTITADESTSTAYMELSSLRSEDTAVYYCARSRGRGYSYGSGLFDYWGQGTLVTVSS VL: DIVMTQSPLSLPVTPGEPASISCRSSESLLITNGFNYIDWYLQKPGQSPQLLIYLGSNRAAGVPDRFSGSGSGTDFTLKISRVEAEDVGVYYCMQALQTPITFGQGTKVEIKR ; kon = 240000
